- Tested on: ECU
- test-summary: qHTS profiling for inhibitors of Plasmodium falciparum proliferation (AID 504749); also: nearly all actives have a fitted effect of over 60% in size
- protocol-conditions: P. falciparum in erythrocytes, SYBR Green DNA, 72 h; series mostly up to 28.7 µM
Inconclusive results are not listed. Active and inactive are the calls of the source. Calls follow the shape of the dose curve; as a rule, active = well fitted inhibition curve with a large enough effect; inconclusive = small, poorly fitted or top-dose-only effect; inactive = flat fitted curve, though single readings scatter.
Returns: one label drawn from active, inactive

# count of solved cases: 10
molecule	cat
[Cl-].[Cl-].[Hg+2]	active
CC(=O)OO	inactive
[N-]=[N+]=CC(=O)OCC(N)C(=O)O (configuration not stated)	inactive
Clc1ccc(C2(Cn3cncn3)OCCO2)c(Cl)c1	inactive
c1ccc2sc(SNC3CCCCC3)nc2c1	inactive
CCCN1CCCC2Cc3[nH]ncc3CC21 (configuration not stated)	inactive
CC(=O)O[C@H]1CC[C@H]2[C@@H]3CCC4=CC(=O)CCC4=C3C=C[C@]12C	inactive
ClC=C(Cl)Cl	inactive
CCOc1ccc2c3c1O[C@H]1[C@@H](O)C=C[C@H]4[C@@H](C2)N(C)CC[C@@]341	inactive
Oc1cccc[c]1[Hg][Cl]	active

Assay result, entry C=CCN1CCC23c4c5ccc(O)c4O[C@H]2C(=O)CC[C@@]3(O)C1C5 (some centres not stated) — outcome?
inactive

Assay result, entry `O=C(O)C(Cl)(Cl)Cl` — outcome?
inactive

Assay result, entry CN1[C@@H]2CC[C@H]1CC(OC1c3ccccc3CCc3ccccc31)C2 (some centres not stated) — outcome?
active

Assay result, entry `O=c1[nH]c(=O)n(Cl)c(=O)n1Cl` — outcome?
inactive

Assay result, entry `O=C/C=C/c1ccccc1` — outcome?
inactive

====

- target: Chromobox protein homolog 1 (Homo sapiens)
- test-summary: qHTS Validation Assay for Inhibitors of HP1-beta Chromodomain Interactions with Methylated Histone Tails (AID 488953); also: nearly all actives have a fitted effect of over 50% in size
- protocol-conditions: HP1-beta chromodomain / methylated histone peptide binding assay; series mostly up to 114 µM
Records with an inconclusive call do not appear. The source made the active and inactive calls. Calls follow the shape of the dose curve; as a rule, active = well fitted inhibition curve with a large enough effect; inconclusive = small, poorly fitted or top-dose-only effect; inactive = no such curve, though single readings can be large or run the other way.
Returns: one label drawn from YES (active), NO (inactive)

# count of solved cases: 6
compound	cat
NC(N)=Nc1ccc2[nH]c3c(c2c1)C[C@@]1(O)[C@H]2Cc4ccc(O)c5c4[C@@]1(CCN2CC1CC1)[C@H]3O5	YES
C=CCN1CCc2cccc3c2[C@H]1Cc1ccc(O)c(O)c1-3	YES
NNC(=O)c1ccc(O)cc1	NO
C[N+]1(C)C2CCC1CC(OC(=O)c1c[nH]c3ccccc13)C2 (stereo not given)	NO
Oc1ccc2c3c1O[C@H]1c4oc5ccccc5c4C[C@@]4(O)C(C2)N(CC2CC2)CCC314 (stereo not given in full)	NO
CN1CCc2cccc(Cl)c2CC1	NO

Here is the next item to consider.
Assay result, entry NC(Cc1cc(O)c(O)cc1O)C(=O)O (stereo not given) — outcome?
YES

====

- test-summary: Drug repurposing screens with cells derived from glioblastoma tumor samples (AID 1345199); also: % is scaled to controls: 0 for no effect and ±100 for the full control effect; nearly all actives have a fitted effect of over 40% in size
- protocol-conditions: GBM patient neurospheres viability, ATP luminescence, 48 h; at 46.1 µM (top of the series); tumour line C
Inconclusive results are not listed.
activity, negative = cell killing less than -10% is class 1; activity, negative = cell killing greater than or equal to -10% is class 0.

# count of solved cases: 4
molecule	cat
O=c1[nH]cc(N(CCCl)CCCl)c(=O)[nH]1	class 1
Cn1sc(Cl)cc1=O	class 1
CCCC(C)C1(CC)C(=O)NC(=O)NC1=O (configuration not stated)	class 0
O=C/C=C/c1ccccc1	class 0

Item ClC1C(Cl)C(Cl)C(Cl)C(Cl)C1Cl (configuration not stated) : activity, negative = cell killing beneath -10%, strictly?
class 1

Item `C=C[C@H]1CN2CC[C@H]1C[C@H]2[C@H](OC(=O)OCC)c1ccnc2ccc(OC)cc12` : activity, negative = cell killing beneath -10%, strictly?
class 0

Item `Clc1ccccc1Cl` : activity, negative = cell killing beneath -10%, strictly?
class 0
